Test system: Staphylococcus aureus
Assay name: Antibacterial activity against Staphylococcus aureus ATCC 25923 assessed as growth inhibition after 24 hr by broth dilution method
Assay type: functional
Measurement setup: ATCC 25923, 24 h
Measured attribute: MIC (µg/mL)
Expressed in µg/mL, but write only the number.

In: Bench note: what MIC did CCN(CC)c1ccc(/C=C/C(=O)c2cc(C(=O)/C=C/c3ccc(N(CC)CC)cc3)c(O)cc2O)cc1 show?
Out: 50

In: Bench note: what MIC did Cc1ccccc1-c1cc(=O)c2cc3c(=O)cc(-c4ccccc4C)oc3cc2o1 show?
Out: 50

* * *

Test system: Pseudomonas aeruginosa
Assay name: Antibacterial activity against Pseudomonas aeruginosa ATCC 27853 assessed as growth inhibition after 24 hr by broth dilution method
Format: functional
Measurement setup: ATCC 27853, 24 h
So I've got a bunch of compounds here, and I need their MIC values.

In: Bench note: what MIC did CCN(CC)c1ccc(/C=C/C(=O)c2cc(C(=O)/C=C/c3ccc(N(CC)CC)cc3)c(O)cc2O)cc1 show?
Out: > 100 µg/mL

In: Bench note: what MIC did O=c1cc(-c2ccco2)oc2cc3oc(-c4ccco4)cc(=O)c3cc12 show?
Out: 12.5 µg/mL

In: Bench note: what MIC did COc1cc(OC)c(C(=O)/C=C/c2cc(OC)c(OC)c(OC)c2)cc1C(=O)/C=C/c1cc(OC)c(OC)c(OC)c1 show?
Out: > 100 µg/mL

In: Bench note: what MIC did O=C(/C=C/c1ccc(Cl)cc1)c1cc(C(=O)/C=C/c2ccc(Cl)cc2)c(O)cc1O show?
Out: 25 µg/mL

In: Bench note: what MIC did O=c1cc(-c2cccc(Cl)c2)oc2cc3oc(-c4cccc(Cl)c4)cc(=O)c3cc12 show?
Out: 25 µg/mL

In: Bench note: what MIC did O=c1cc(-c2ccc(Cl)cc2)oc2cc3oc(-c4ccc(Cl)cc4)cc(=O)c3cc12 show?
Out: 25 µg/mL

In: Bench note: what MIC did O=C(/C=C/c1ccco1)c1cc(C(=O)/C=C/c2ccco2)c(O)cc1O show?
Out: 12.5 µg/mL

In: Bench note: what MIC did COc1cccc(/C=C/C(=O)c2cc(C(=O)/C=C/c3cccc(OC)c3)c(O)cc2O)c1 show?
Out: 50 µg/mL

In: Bench note: what MIC did COc1cc(-c2cc(=O)c3cc4c(=O)cc(-c5cc(OC)c(OC)c(OC)c5)oc4cc3o2)cc(OC)c1OC show?
Out: > 100 µg/mL

In: Bench note: what MIC did COc1cccc(-c2cc(=O)c3cc4c(=O)cc(-c5cccc(OC)c5)oc4cc3o2)c1 show?
Out: 50 µg/mL

In: Bench note: what MIC did COc1cc(/C=C/C(=O)c2cc(C(=O)/C=C/c3cc(OC)c(OC)c(OC)c3)c(O)cc2O)cc(OC)c1OC show?
Out: > 100 µg/mL

In: Bench note: what MIC did Cc1ccccc1-c1cc(=O)c2cc3c(=O)cc(-c4ccccc4C)oc3cc2o1 show?
Out: 50 µg/mL

In: Bench note: what MIC did CCN(CC)c1ccc(/C=C/C(=O)c2cc(C(=O)/C=C/c3ccc(N(CC)CC)cc3)c(OC)cc2OC)cc1 show?
Out: > 100 µg/mL

In: Bench note: what MIC did COc1ccccc1C(=O)Oc1cc(OC(=O)c2ccccc2OC)c(C(C)=O)cc1C(C)=O show?
Out: > 100 µg/mL

In: Bench note: what MIC did Cc1ccccc1/C=C/C(=O)c1cc(C(=O)/C=C/c2ccccc2C)c(O)cc1O show?
Out: > 100 µg/mL

In: Bench note: what MIC did CN(C)c1ccc(/C=C/C(=O)c2cc(C(=O)/C=C/c3ccc(N(C)C)cc3)c(O)cc2O)cc1 show?
Out: 50 µg/mL

In: Bench note: what MIC did O=C(/C=C/c1cccc(Cl)c1)c1cc(C(=O)/C=C/c2cccc(Cl)c2)c(O)cc1O show?
Out: 50 µg/mL
